Test: Saturation mutagenesis of SEQ ID NO:109: dicamba decarboxylation activity of point mutants (CO2 released), fold of backbone (Tables 7, 8, Megatable 1)
Conditions: decarboxylation activity (CO2 released) of point mutant vs unmutated backbone protein; backbone SEQ ID NO: 109
measured_attribute: Fold Activity (fold)
Numeric answer only, unit fold assumed.

Examples with answers:
[
  {
    "molecule": "140 (protein, Dicamba decarboxylase variant) MAQGKVALEEHFAIPETLQDSAGFVPGDYWKELQHRLLDIQDTRLKLMDAHGIETMILSLAAPAVQAIPDRRKAIEIARRANDFLAEECAKRPDRFLAFAALPLQDPDAATEELQRCVNDLGFVGALVNGFSQEGDGQTPLYYDLPQYRPFWGEVEKLDVPFYLHPRNPLPQDSRIYDGHPWLLGPTWAFAQETAVHALRLMASGLFDEHPRLNIILGHLGEGLPYMMYRIDHRIAWVHEPPRYPAKRRFMDYFNENFHITTSGNFRTQTLIDAILEIGADRILFSTDWPFENIDHAADWFNATSIAEADRVKIGRTNARRLFKLDGA",
    "Fold Activity, fold": 1.1
  },
  {
    "molecule": "134 (protein, Dicamba decarboxylase variant) MAQGKVALEEHFAIPETLQDSAGFVPGDYWKELQHRLLDIQDTRLKLMDAHGIETMILSLAAPAVQAIPDRRKAIEIARRANDMLAEECAKRPDRFLAFAALPLQDPDAATEELQRCVNDLGFVGALVNGFSQEGDGQTPLYYDLPQYRPFWGEVEKLDVPFYLHPRNPLPQDSRIYDGHPWLLGPTWAFAQETAVHALRLMASGLFDEHPRLNIILGHLGEGLPYMMYRIDHRIAWVHEPPRYPAKRRLMDYFNENFHITTSGNFRTQTLIDAILEIGADRILFSTDWPFENIDHAADWFNATSIAEADRVKIGRTNARRLFKLDGA",
    "Fold Activity, fold": 1.5
  }
]

Alright, here's another molecule for you.
Tell me its Fold Activity given 85 (protein, listed as Maritimibacter alkaliphilus) MAADRKPGLVSVEEGFMIPEVVAELSRIAGGVPSMKSGPIAGPFMDDLLDIGKGRVARMDADGVAVQILALAAPGVQKFDPDTALALSRLTNDRLAEAIAAHPARFGGLAAAPPQAAREGAKELDRAITTLGLNGLIVNSHTNDLYLDDPSFWPLLEAAEALDVPVYLHPREPAAGIEGGLMAMTGFTVGWAYAVETGTHLLRMIAAGVFDRFPRLRIVLGHLGEMIPFMLDRIDNRYPFEMGVTGAKPLPRKPSDYFRDHVTVATSGMNFNAPMRAAIEVLGADKVMFAADYPMERQDEEVAKFAALDLTPDERKRIGEDNARRVFGL as the entry. 1.4
